test system: Staphylococcus aureus; experiment: Antimicrobial activity against Methicillin-resistant Staphylococcus aureus assessed as bacterial growth inhibition incubated for 24 to 48 hrs by microdilution method; type: functional; details: time 24-48 hrs
measured.endpoint: log10 of MIC (log10 of the value in µg/mL)
Hey, these are logged values: log10 of MIC, µg/mL being the unit before logging.

// worked examples, log10 of MIC included
NC(=O)c1cnn(-c2ccc([N+](=O)[O-])cc2[N+](=O)[O-])c1NC(=O)c1cccc(Cl)c1
1.66
NC(=O)c1cnn(-c2ccc([N+](=O)[O-])cc2[N+](=O)[O-])c1NC(=O)c1ccc(Cl)cc1
1.59
NC(=O)c1cnn(-c2ccc([N+](=O)[O-])cc2[N+](=O)[O-])c1NC(=O)c1ccc(Br)cc1
1.47
CC[C@H]1OC(=O)[C@H](C)[C@@H](O[C@H]2C[C@@](C)(OC)[C@@H](O)[C@H](C)O2)[C@H](C)[C@@H](O[C@@H]2O[C@H](C)C[C@H](N(C)C)[C@H]2O)[C@](C)(O)C[C@@H](C)C(=O)[C@H](C)[C@@H](O)[C@]1(C)O [ERYTHROMYCIN]
1.51
NC(=O)c1cnn(-c2ccc([N+](=O)[O-])cc2[N+](=O)[O-])c1NC(=O)c1ccccc1
1.88

What the record says about Cc1onc(-c2ccccc2Cl)c1C(=O)N[C@@H]1C(=O)N2[C@@H]1SC(C)(C)[C@@H]2C(=O)O [CLOXACILLIN] : log10 of MIC is 1.97

For this compound ( Cc1ccc(C(=O)Nc2c(C(N)=O)cnn2-c2ccc([N+](=O)[O-])cc2[N+](=O)[O-])cc1 ), measured log10 of MIC is 1.62

Form field log10 of MIC, entry NC(=O)c1cnn(-c2ccc([N+](=O)[O-])cc2[N+](=O)[O-])c1NC(=O)c1ccc([N+](=O)[O-])cc1 : 0.60

Entry CC(=O)Nc1c(C(N)=O)cnn1-c1ccc([N+](=O)[O-])cc1[N+](=O)[O-] — recorded log10 of MIC = 2.00

Value of log10 of MIC reported for the compound CC1=C(C(=O)O)N2C(=O)[C@@H](NC(=O)[C@H](N)c3ccccc3)[C@H]2SC1 [CEPHALEXIN ANHYDROUS] is 1.86

Note to self: log10 of MIC recorded for COc1ccc(C(=O)Nc2c(C(N)=O)cnn2-c2ccc([N+](=O)[O-])cc2[N+](=O)[O-])cc1 was 1.00
